Test system: Klebsiella aerogenes VIM-1, SHV-12
Response field label: string, one of Yes (MIC strictly below 0.2 µg/mL) or No.

Recorded results for 3 compounds are shown here.
{"columns": ["COMPOUND", "CLASS"],
 "data": [
  ["Nc1nc(/C(=N/OC2(C(=O)O)CC3CCC(C2)O3)C(=O)N[C@H]2CON(C3(C(=O)O)C[C@H](N4C(=O)c5cc(O)c(O)nc5C4=O)C(=O)O3)C2=O)cs1 (stereo partly drawn) [Cmpd 27]", "Yes"],
  ["Nc1nc(/C(=N/OC2(C(=O)O)CNC2)C(=O)N[C@H]2CON(C3(C(=O)O)C[C@H](N4C(=O)c5cc(O)c(O)cc5C4=O)C(=O)O3)C2=O)cs1 (stereo partly drawn) [Cmpd 7]", "No"],
  ["CC(C)(O/N=C(\\C(=O)N[C@H]1CON(C2(C(=O)O)C[C@H](N3Cc4cc(O)c(O)cc4C3=O)C(=O)O2)C1=O)c1csc(N)n1)C(=O)O (stereo partly drawn) [Cmpd 35]", "No"]
]}

Input: Identify whether the compound CC(C)(O/N=C(\C(=O)N[C@H]1CON(C2(C(=O)O)C[C@H](N3C(=O)c4cc(O)c(O)nc4C3=O)C(=O)O2)C1=O)c1csc(N)n1)C(=O)O (stereo partly drawn) [Cmpd 36] records MIC below 0.2 µg/mL.
Output: No

Input: What would you report for Nc1nc(/C(=N/OC2(C(=O)O)CC2)C(=O)N[C@H]2CON(C3(C(=O)O)C[C@H](N4C(=O)c5cc(O)c(O)cc5C4=O)C(=O)O3)C2=O)cs1 (stereo partly drawn) [Cmpd 1] ?
Output: No
